B1: WDFY2 (parent)
chain: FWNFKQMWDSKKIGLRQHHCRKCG

variants of: B1; assay: protein stability index of a GFP-peptide fusion (GPS, HEK-293T) (PSI 1-6); higher = more stable; conditions: c terminus: a fixed tail appended;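 further: lentivirally expressed fusions sorted by FACS into six bins by GFP to DsRed ratio, PSI derived from sequencing read proportions per bin multiplied by bin number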

{"columns": ["sequence.record", "protein stability index"],
 "data": [
  ["FWNFMQMWDSKKIGLRQHHCRKCG [K5M]", 2.6],
  ["FWNPKQMWDSKKIGLRQHHCRKCG [F4P]", 1.93],
  ["FWNFKQMWDKKKIGLRQHHCRKCG [S10K]", 2.04],
  ["FWNFKQMWDSKKIFLRQHHCRKCG [G14F]", 1.93],
  ["FWNFKQMWDSKKIGLRQHVCRKCG [H19V]", 1.98],
  ["FWNFKQMWDSKKITLRQHHCRKCG [G14T]", 2.4],
  ["FWNFKQMSDSKKIGLRQHHCRKCG [W8S]", 2.14],
  ["FWNFKQMWDSKKMGLRQHHCRKCG [I13M]", 2.29],
  ["FWNFKQMWDSKKIGLRQHHCRKCV [G24V]", 3.27],
  ["FWNFKQMWDSKKIGLRQHHYRKCG [C20Y]", 1.84],
  ["FWNFKQMWDSKKIGLRVHHCRKCG [Q17V]", 2.13],
  ["FFNFKQMWDSKKIGLRQHHCRKCG [W2F]", 1.61],
  ["FWNFKQMWDSKKIGLRQHHPRKCG [C20P]", 1.94],
  ["FWNFKVMWDSKKIGLRQHHCRKCG [Q6V]", 1.51],
  ["FWNFKQMWSSKKIGLRQHHCRKCG [D9S]", 1.28],
  ["FWNFKQMWDSKKIGLRGHHCRKCG [Q17G]", 1.49],
  ["FWNFDQMWDSKKIGLRQHHCRKCG [K5D]", 1.96],
  ["FWNFKQMIDSKKIGLRQHHCRKCG [W8I]", 1.8],
  ["FWNFKQMWDSKKIGLLQHHCRKCG [R16L]", 1.76],
  ["FWNFKQKWDSKKIGLRQHHCRKCG [M7K]", 1.69],
  ["FWNFKQMWDSKKIGLRQHKCRKCG [H19K]", 2.39],
  ["FWNFKQMWDSKKIGLRQHHCRKDG [C23D]", 1.89]
]}
